Each entry below carries its recorded growth.
System: 786-0 renal
Experiment: NCI-60 one-dose screen, 48 h (100 = growth as untreated, 0 = no growth, -100 = all killed)
Details: 10 µM unless noted
The panel holds about 83,000 compounds, 20% with a hit somewhere; the sample as a whole holds those more often. Calls of active or inactive are those of the source. How the source made its calls: active means growth percent below 10; inactive means the rest.

Molecule | growth
N#Cc1c(N2CCOCC2)nc(=S)[nH]c1-c1ccco1 | 65.8% (inactive)
C[n+]1c(-c2ccccc2)c2cc(N)ccc2c2ccccc21 | 55.3% (inactive)
N#C/C(C(=O)c1ccccc1)=C1/C(=O)Nc2ccc(F)cc21 | 101% (inactive)
Nc1cc(C(=O)O)[nH]c(=S)n1 | 100% (inactive)
C[C@]12CCc3nc(Nc4ccccc4)sc3C1=CC[C@@H]1[C@@H]2CC[C@]2(C)/C(=N/NC(N)=S)CC[C@@H]12 | -49.8% (active)
CCOC(=O)C1=C(C(=O)c2ccc(Br)cc2)C(c2ccc(Br)cc2)NC(=S)N1 (configuration not stated) | 106% (inactive)
CCOC(=O)C(=Cc1ccccc1[N+](=O)[O-])C(=O)OCC | 28.2% (inactive)
O=C(O)c1cn(C2CC2)c2cc(N3CCN(Cc4c(O)ccc5ccccc45)CC3)c(F)cc2c1=O | 29.5% (inactive)
O=C1/C(=C/c2ccc(OCc3ccccc3)cc2)Oc2cc(OCCN3CCCCC3)ccc21 | 69% (inactive)
O=C1COCCN1c1ccc(NCc2cn(Cc3ccc(F)cc3)c3ccccc23)cc1 | 67.1% (inactive)
CCN(CC)c1ccc2cc(NC(=O)OCCNC(=O)CCNC(=O)[C@H](CC(C)C)NC(=O)C(C)(C)NC(=O)C(C)(C)NC(=O)[C@H](CC(C)C)NC(=O)CCNC(=O)C(C)(C)NC(=O)[C@H](CC(C)C)NC(=O)CCNC(=O)[C@@](C)(CC)NC(=O)[C@H](C)NC(=O)CCNC(=O)C(C)(C)NC(=O)[C@H](C)NC(=O)[C@@H]3CCCN3C(=O)[C@@](C)(CC)NC(=O)[C@H](Cc3ccccc3)NC(=O)C3CCCN3C(=O)C(C)(C)NC(=O)C3CCCN3C(=O)C(C)(C)NC(C)=O)c(=O)oc2c1 (some centres not stated) | -94.8% (active)
COc1ncc(-c2ccc3nccc(C#CCCCCC(=O)O)c3c2)cc1NS(=O)(=O)c1ccc(F)cc1F | 3.82% (active)
Cc1cc(C)c(O)c(CNCCCNCc2cc(C)cc(C)c2O)c1 | 80% (inactive)
COc1ccc(C2NC(=O)C(C#N)c3c2sc2c(F)cccc32)cc1 (configuration not stated) | 71% (inactive)
O=C(NCc1ccccc1)C(Cl)Cl | 104% (inactive)
O=C(Nc1ccc(CN2CCOCC2)c(C(F)(F)F)c1)c1nc2ccc3[nH]ncc3c2c2c1CCCC2 | 101% (inactive)
O=C(Nc1ccccc1)Nc1ccc(C(=O)/C=C/c2ccc(N3CCCC3)cc2)cc1 | 93.9% (inactive)

###

Tested on: K-562 leukemia
Assay: NCI-60 one-dose screen, 48 h
Settings: 10 µM unless noted
Compounds without any hit were thinned out: in the full panel of roughly 83,000, 20% have a hit. Activity calls are given as the source filed them. Rule for the calls: active = growth percent below 10; inactive = the rest.
Classes used: 1 (yes) (active), 0 (no) (inactive)

Molecule | Cat
COc1ccc(-c2cc(-c3ccc(Cl)cc3)nc(SCCCCCCC(=O)NO)n2)cc1 | 0 (no)
COc1cc(OC)cc(C(=O)Nc2cc(-c3cccnc3)nc(NCCCN3CCOCC3)n2)c1 | 0 (no)
Cc1cc[n+](CCCCCCCCCC[n+]2ccc(C)cc2)cc1 | 0 (no)
COCCCNc1nc(NC(=O)c2cc(OC)cc(OC)c2)cc(-c2cccnc2)n1 | 0 (no)
O=S(=O)(NCCNc1nccc(-c2c(-c3cccc(F)c3)nc3occn23)n1)c1ccc(C(F)(F)F)cc1 | 0 (no)
CC1(C)CC[C@]2(C(=O)OC(=O)[C@]34CCC(C)(C)C[C@@H]3C3=CC[C@@H]5[C@@]6(C)CCC(=O)C(C)(C)[C@@H]6CC[C@@]5(C)[C@]3(C)CC4)CC[C@]3(C)C(=CC[C@@H]4[C@@]5(C)CCC(=O)C(C)(C)[C@@H]5CC[C@]43C)[C@H]2C1 | 0 (no)
C#CCNC(=O)CC[C@@H](C)[C@H]1CC[C@H]2[C@@H]3CC[C@@H]4CC(=O)CC[C@]4(C)[C@H]3CC[C@]12C | 1 (yes)
CC1(C)C(=O)/C(=C\c2ccco2)C[C@]2(C)[C@H]3CC=C4[C@@H]5C[C@](C)(C(=O)O)CC[C@]5(C)CC[C@@]4(C)[C@]3(C)CC[C@@H]12 | 1 (yes)
C=CCCCCCCCCC(=O)OC(C)C | 0 (no)
O=[N+]([O-])c1ccc(O)c(-c2nc3ccccc3s2)c1 | 0 (no)
COc1ccc2c(c1)C(C)Cc1c(ncnc1-n1cnc3ccccc31)N2C (configuration not stated) | 0 (no)
COc1ccc(C(=O)CSc2nccc(Nc3ccc(C(=O)O)cc3)n2)cc1 | 0 (no)
O=C(O)c1ccccc1C(F)(F)F | 0 (no)
CSc1nc2sc3cc(Cl)c(Cl)cc3n2c(=N)c1C#N | 0 (no)
COC(=O)[C@@H](NC(=O)NC(=O)NC(=O)CI)C(C)C | 0 (no)
Cc1cnc([C@]23CC[C@@H](C)[C@H](C)[C@H]2C2=CC[C@@H]4[C@@]5(C)Cc6c([nH]c7ccccc67)C(C)(C)[C@@H]5CC[C@@]4(C)[C@]2(C)CC3)o1 | 0 (no)
C#CCNC(=O)CC[C@]1(C)[C@H]2CC[C@@H]3[C@@H]([C@@](C)(O)CCC=C(C)C)CC[C@@]3(C)[C@]2(C)CC[C@H]1C(=C)C | 1 (yes)
CC(C)C1=NOC(=O)C1=Cc1cn(-c2ccco2)nc1-c1ccccc1 | 0 (no)
O=C1COCCN1c1ccc(NCc2cn(Cc3cccc4ccccc34)c3ccccc23)cc1 | 0 (no)
N#CC1C(=O)NC(c2ccccc2[N+](=O)[O-])c2sc3c(F)cccc3c21 (configuration not stated) | 0 (no)
Cc1cnc(N)nc1OCCNC(=O)c1cccc(-c2ccc(S(=O)(=O)Nc3ccc4c(c3)N(C(=O)C3CC3)CCC4)cc2)c1 | 0 (no)
CC(C)[C@H]1CCC2=C3CC[C@]45OC(=O)[C@@]6(CCC(C)(C)C[C@H]64)CC[C@@]5(C)[C@]3(C)CC[C@@]21C | 0 (no)
Cc1ccc(N)c(O)c1 | 0 (no)
COc1cc2c(O)n(CCCN3CCOCC3)c3c4cnc5cccc(c(=O)c3c2cc1OC)c54 | 0 (no)
COCCCNc1nc(NC(=O)c2cc(Br)cc(C(F)(F)F)c2)cc(-c2cccnc2)n1 | 0 (no)
COC(=O)c1cc(O)c2c(c1C(=O)OC)C[C@H]1[C@@H]3CC=C4C[C@@H](O)CC[C@]4(C)[C@H]3CC[C@]21C | 0 (no)
O=C(NCCO)c1cccnc1 | 0 (no)
CC(=O)Nc1ccc2nc3ccc(NC(C)=O)cc3[n+](-c3ccccc3)c2c1 | 0 (no)
Cc1ccc(C2=C/C(=C/c3ccc(Br)cc3)C(=O)N2CCc2ccc(S(N)(=O)=O)cc2)cc1 | 0 (no)
CN(C)C(=S)Sc1ccc([N+](=O)[O-])cc1[N+](=O)[O-] | 1 (yes)
Nc1cc(C(=O)O)[nH]c(=S)n1 | 0 (no)
Cc1cc(C)c(O)c(CNCCCNCc2cc(C)cc(C)c2O)c1 | 0 (no)
C#CCC(C(=O)OCC)C(=O)OCC | 0 (no)
CC1(C)CC[C@]2(C(=O)O)CC[C@]3(C)C(=CC[C@@H]4[C@@]5(C)C/C(=C/c6cccnc6)[C@H](O)C(C)(C)[C@@H]5CC[C@]43C)[C@@H]2C1 | 1 (yes)
CCCCCCCCCCCCCCNC(=O)Nc1ccc(Cl)c(Cl)c1 | 0 (no)
COc1ccc(C(=O)CSc2nnc(-c3cc(-c4ccccc4)nc4ccccc34)o2)cc1 | 0 (no)
CC(C)CSc1ncnc2nc[nH]c12 | 0 (no)

###

Test system: NCI-H460 lung
Assay: NCI-60 one-dose screen, 48 h
Details: 10 µM unless noted
About 83,000 compounds went through this panel and 20% of them were active in at least one assay; those are over-represented in the sample as a whole. The source made the active and inactive calls. How the source made its calls: active means growth percent below 10; inactive means the rest.
Classes used: active, inactive

Molecule | Cat
COc1ccc2nc3cc(Cl)ccc3c(Nc3ccc(O)cc3)c2c1 | inactive
C#C[C@]1(O)CC[C@H]2[C@@H]3CC=C4c5nc(N)sc5CC[C@]4(C)[C@H]3CC[C@@]21C | inactive
O=[N+]([O-])c1cc([N+](=O)[O-])c(NN=C(c2ccc(O)cc2)c2ccc(O)cc2)cc1Cl | active
CCn1cc(-c2cc(-c3ccc(Cl)cc3)nc(N)n2)c(-c2ccc(Br)cc2)n1 | inactive
CCOC(=O)c1cnc2ccc(Br)cc2c1Nc1cccc(S(N)(=O)=O)c1 | inactive
c1nc(N2CCOCC2)c2[nH]ccc2n1 | inactive
CCCCCCCCCCCCCC[n+]1cccc(C(N)=O)c1 | inactive
CC(C)C1=NOC(=O)C1=Cc1cn(-c2ccccc2)nc1-c1ccc(Cl)cc1 | inactive
Cc1cc(N2CCCCCC2)nc(N2CCN(CC(=O)Nc3ccc4c(ccn4Cc4ccccc4)c3)CC2)n1 | inactive
CCN(CC)CC(C)Nc1ccc(C)c2sc3ccccc3c(=O)c12 (stereo unspecified) | inactive
COc1ccc(C(C(=O)O)c2ccc(OC)cc2)cc1 | inactive
CCCCN(CC)CC(CC)Nc1cc(OC)cc2cccnc12 (stereo unspecified) | inactive
COC(=O)C(=Cc1ccccc1[N+](=O)[O-])C(=O)OC | inactive
CCN(CC)c1ccc2cc(NC(=O)OCCNC(=O)CCNC(=O)[C@H](CC(C)C)NC(=O)C(C)(C)NC(=O)C(C)(C)NC(=O)[C@H](CC(C)C)NC(=O)CCNC(=O)C(C)(C)NC(=O)[C@H](CC(C)C)NC(=O)CCNC(=O)[C@@](C)(CC)NC(=O)[C@H](C)NC(=O)CCNC(=O)C(C)(C)NC(=O)[C@H](C)NC(=O)[C@@H]3CCCN3C(=O)[C@@](C)(CC)NC(=O)[C@H](Cc3ccccc3)NC(=O)C3CCCN3C(=O)C(C)(C)NC(=O)C3CCCN3C(=O)C(C)(C)NC(C)=O)c(=O)oc2c1 (stereo partly specified) | active
O=C(CSc1nccc(Nc2ccc(S(=O)(=O)Nc3ccccn3)cc2)n1)c1ccc(Cl)cc1 | inactive
CCCC[C@@H](C=O)NC(=O)[C@H](CC(C)C)NC(=O)[C@H](CC(C)C)NC(=O)OCc1ccccc1 | active
Cc1nc(-c2ccccc2)sc1CC#N | inactive
CCCC(NC(=O)OCc1ccccc1)C(=O)O (stereo unspecified) | inactive
c1ccc(-c2n[nH]c(-c3ccccn3)n2)nc1 | inactive
CSc1nc(N)c(N=Nc2ccc(S(=O)(=O)Nc3nnc(C)s3)cc2)c(=O)[nH]1 | inactive
Cc1ncc(C(=O)Nc2ccc(CN3CCN(C)CC3)c(C(F)(F)F)c2)cc1C#Cc1c(N)ncc2ccc(C#N)cc12 | inactive
C[C@H]1[C@H](C)CC[C@]2(C(=O)O)CC[C@]3(C)C(=CC[C@@H]4[C@@]5(C)C/C(=C/c6cccnc6)[C@H](O)C(C)(C)[C@@H]5CC[C@]43C)[C@H]12 | active
O=C(Oc1ccc(Cl)cc1[N+](=O)[O-])Oc1ccc(Cl)cc1[N+](=O)[O-] | inactive
Cc1cc(C)c(O)c(CNCCCNCc2cc(C)cc(C)c2O)c1 | inactive
CCCCOC(=O)c1c(C)[nH]c(/C=C2\N=C(c3ccc[nH]3)C=C2OC)c1C | active
COc1cc2c(c(OC)c1OC)-c1ccc(NNC(N)=S)c(=O)cc1[C@@H](NC(C)=O)CC2 | active
Clc1ccc(N2CCN(CCCN3CCN(c4cccc(Cl)c4)CC3)CC2)cc1 | inactive
C#CCNC(=O)CC[C@]1(C)[C@H]2CC[C@@H]3[C@@H]([C@@](C)(O)CCC=C(C)C)CC[C@@]3(C)[C@]2(C)CC[C@H]1C(=C)C | inactive
COc1cc(C(=O)/C=C/c2c(-c3ccc(F)cc3)nc3sccn23)cc(OC)c1OC | active
CCCCC(CC)COC(=O)C[N+](C)(C)CCOC(c1ccccc1)c1ccccc1 (stereo unspecified) | inactive
CC1(C)NCCC[C@]2(C)[C@H]3C=CC4=C5C[C@](C)(CO)CC[C@]5(C)CC[C@@]4(C)[C@]3(C)CC[C@@H]12 | active
Fc1ccc(NC(=S)c2ccccc2)cc1 | inactive
O=C1CN(Cc2ccc(C(=O)NO)cc2)C(=O)[C@@H](Cc2ccccc2)N1 | inactive
CCC(C)[C@H](NC(=O)NC(=O)NC(=O)CI)C(=O)OC (stereo partly specified) | inactive
C=CCc1nc2ccccc2s1 | inactive
CC(=O)OC[C@]12CC[C@@H](C(=O)CBr)[C@@H]1[C@H]1CC[C@@H]3[C@@]4(C)CCCNC(C)(C)[C@@H]4CC[C@@]3(C)[C@]1(C)CC2 | active
